system: SF-268; experiment: NCI tumour cell line growth inhibition, 48 h
The source made the active and inactive calls. Cut-off read from the data, not from the text of the source: active = GI50 up to about 1.1 µM and inactive = higher.
reported-endpoint: GI50

INSERT INTO measurements (compound, data_value) VALUES
  ('CNc1ccc(C(=O)CC(O)CCC(C)C2OC(=O)CC(O)CC(=O)CC(O)CC(O)CC(O)CC(O)CC3(O)CC(O)C(C(=O)NCCN(C)C)C(CC(OC4OC(C)C(O)C(NC(=O)CN5CCN(C)CC5)C4O)\C=C/C=C\C=C/C=C/C=C/C=C\C=C/C2C)O3)cc1 (stereo not drawn)', '6.64 µM (inactive)'),
  ('C#CC(=O)OCC#CCOC(=O)C#C', '> 100 µM (inactive)'),
  ('COc1ccc(/C=C2\C[C@H]3[C@@H]4CC=C5C[C@@H](OC(C)=O)CC[C@]5(C)[C@H]4CC[C@]3(C)\C2=N\O)cc1OC', '> 100 µM (inactive)'),
  ('COC(=O)[C@@H]1C=C[C@H](OC2OC(COC(C)=O)C(OC(C)=O)C(OC(C)=O)C2OC(C)=O)n2c(=O)c3ccccc3c(=O)n21 (stereo partly drawn)', '> 10 µM (inactive)'),
  ('N#CN=C(NCc1ccccc1)NCc1ccccc1', '18.2 µM (inactive)');

Respectfully, I request GI50 for each entry included below.
1. COc1ccc2nc(-c3ccccc3)c(=O)[nH]c2c1
2. CN(C)/C=N/S(=O)(=O)c1nn2c(C=O)c(-c3ccc(Cl)cc3)nc2s1
3. FC1OC2OC1C(OCc1ccccc1)C(OCc1ccccc1)C2OCc1ccccc1 (stereo not drawn)
4. COc1ccc2c(c1)[C@@]13CCN4CC5=CCO[C@H]6CC(=O)N2[C@H]1[C@H]6[C@H]5C[C@H]43
5. CC(C)C(=O)OCC1CCCN2CCCCC12 (stereo not drawn)
6. CN1C(=O)C2(c3ccccc31)C1CC3C(CO1)C1C2C3(CO)CN1C#N (stereo not drawn)
7. NC(=O)NOCC1NC(=O)NC1=O (stereo not drawn)
8. O=c1c2cc([N+](=O)[O-])ccc2n2n1Cc1ccccc1C2

A)
> 100 µM (inactive)
3.46 µM (inactive)
32.4 µM (inactive)
> 100 µM (inactive)
> 100 µM (inactive)
> 100 µM (inactive)
> 100 µM (inactive)
> 100 µM (inactive)

Report GI50 for every entry below.
1. CSc1cnc2ccccc2c1Sc1c[nH]c2ccccc2c1=O
2. Cc1ccnc(NS(=O)(=O)c2ccc(N=[N+]=[N-])cc2)n1
3. CCOC(=O)Nc1nc(-c2ccccc2)c(C)s1
4. C=C(C)C(=O)OC1C[C@H](COC(C)=O)C2CC=C(C)C2C2OC(=O)C(=C)[C@H]12 (stereo partly drawn)
5. O=C1Cc2c(-c3ccccc3)cc(-c3ccc(Cl)cc3)nc2-c2ccccc2N1

A)
1. 17.3 µM (inactive)
2. > 100 µM (inactive)
3. > 100 µM (inactive)
4. 2.4 µM (inactive)
5. 4.85 µM (inactive)

Fill in GI50 for each of the 2 compounds listed.
1. CCCCOCOc1ccccc1P1(=O)COc2ccccc2OC1
2. Cc1ccc(C(=O)O/N=C2/CCCCC2CN(C)C)cc1 (stereo not drawn)

A)
1: > 100 µM (inactive); 2: > 10 µM (inactive)

Kindly give each listed record's GI50.
1. CCSc1[nH]c(Nc2nc(-c3ccccc3)n(-c3ccccc3)n2)c(C(N)=O)c1C(N)=O
2. C/C=C(/C)C(=O)O[C@@H]1CCN2CC[C@H](COC(=O)/C(=C/C)CO)C12 (stereo partly drawn)
3. c1ccc2/c3[nH]/c(c2c1)=N\c1ccc(cc1)-c1nc2ccc(cc2o1)/N=c1/[nH]/c(c2ccccc12)=N/c1ccc2nc(oc2c1)-c1ccc(cc1)\N=3
4. [O-][n+]1onc2c3nn(-c4ccccc4)nc3ccc21
5. COc1ccc2c(C(=O)O)cc3cc(OC)c(OC)cc3c2c1
6. Cc1ccc(/C=C2\CN(C)CC3C2=NN(c2ccccc2)C3c2ccc(C)cc2)cc1 (stereo not drawn)

A)
> 10 µM (inactive)
> 100 µM (inactive)
15.3 µM (inactive)
> 86.7 µM (inactive)
> 100 µM (inactive)
> 100 µM (inactive)
